System: Escherichia coli TOP10
Assay: shrunken log2 fold change of peptide-encoding DNA abundance (4.5 h post-induction vs induction); higher = less antimicrobial activity (less host growth inhibition)
Details: time post-induction: 4.5 h; library: site-saturation at positions 5, 18, 19, 20
Property name: shrunken log2 fold change
Form: value (number only, do not type unit).

Completed entries (count: 2):
{"columns": ["Item sequence", "Tested on", "shrunken log2 fold change"],
 "data": [
  ["RRIRHRPPRLPRPRPRPYIHPRP", "Escherichia coli TOP10", -0.322],
  ["RRIRLRPPRLPRPRPRPWTRPRP", "Escherichia coli TOP10", -0.148]
]}

[Q] Supply reported shrunken log2 fold change belonging to this sequence: RRIRGRPPRLPRPRPRPGNHPRP
[A] -0.147

[Q] Supply reported shrunken log2 fold change belonging to this sequence: RRIRMRPPRLPRPRPRPGNVPRP
[A] -0.0105

[Q] Supply reported shrunken log2 fold change belonging to this sequence: RRIRERPPRLPRPRPRPVHGPRP
[A] -0.152

[Q] Supply reported shrunken log2 fold change belonging to this sequence: RRIRPRPPRLPRPRPRPSHMPRP
[A] -0.466

[Q] Supply reported shrunken log2 fold change belonging to this sequence: RRIRCRPPRLPRPRPRPFNWPRP
[A] -0.648

[Q] Supply reported shrunken log2 fold change belonging to this sequence: RRIRGRPPRLPRPRPRPRKEPRP
[A] 0.363

[Q] Supply reported shrunken log2 fold change belonging to this sequence: RRIRGRPPRLPRPRPRPTAGPRP
[A] 1.15

[Q] Supply reported shrunken log2 fold change belonging to this sequence: RRIRNRPPRLPRPRPRPTLDPRP
[A] 0.221

[Q] Supply reported shrunken log2 fold change belonging to this sequence: RRIRMRPPRLPRPRPRPPPKPRP
[A] 2.03

[Q] Supply reported shrunken log2 fold change belonging to this sequence: RRIRLRPPRLPRPRPRPRCGPRP
[A] 0.0294

[Q] Supply reported shrunken log2 fold change belonging to this sequence: RRIRQRPPRLPRPRPRPQKYPRP
[A] -0.517

[Q] Supply reported shrunken log2 fold change belonging to this sequence: RRIRKRPPRLPRPRPRPWNAPRP
[A] 0.0384

[Q] Supply reported shrunken log2 fold change belonging to this sequence: RRIRSRPPRLPRPRPRPFHGPRP
[A] -0.00545

* * *

Test system: Escherichia coli TOP10;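 also: peptides expressed intracellularly from a pBAD plasmid library in pooled LB shake-flask culture, induced with 0.3% L-arabinose, DNA abundance read by NGS, three biological replicates, DESeq2 with apeglm shrinkage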
Experiment: shrunken log2 fold change of peptide-encoding DNA abundance (4.5 h post-induction vs induction); higher = less antimicrobial activity (less host growth inhibition)
Conditions: time post-induction: 4.5 h; library: site-saturation at positions 5, 18, 19, 20
Each entry falls into one class according to its shrunken log2 fold change; the ranges are Low: < -0.1; Mid: ≥ -0.1 and < 0.4; High: ≥ 0.4

Known results for sequences:
{"columns": ["Item sequence", "Cat"],
 "data": [
  ["RRIRFRPPRLPRPRPRPPPYPRP", "High"],
  ["RRIRGRPPRLPRPRPRPMVNPRP", "High"],
  ["RRIRVRPPRLPRPRPRPHKNPRP", "Low"],
  ["RRIRGRPPRLPRPRPRPHGLPRP", "Mid"],
  ["RRIRDRPPRLPRPRPRPAIRPRP", "High"],
  ["RRIRMRPPRLPRPRPRPMQHPRP", "High"]
]}

[Q] Just checking, what class would you give RRIRWRPPRLPRPRPRPLVMPRP here?
[A] Mid

[Q] Just checking, what class would you give RRIRCRPPRLPRPRPRPSYRPRP here?
[A] Low

[Q] Just checking, what class would you give RRIRWRPPRLPRPRPRPVDHPRP here?
[A] Mid

[Q] Just checking, what class would you give RRIRQRPPRLPRPRPRPGILPRP here?
[A] Low

[Q] Just checking, what class would you give RRIRLRPPRLPRPRPRPDTTPRP here?
[A] Low

[Q] Just checking, what class would you give RRIRRRPPRLPRPRPRPCINPRP here?
[A] High
